testedOn: soluble, sperm-specific adenylate cyclase (sAC) (Homo sapiens)
Sequence (Q96PN6 whole entry): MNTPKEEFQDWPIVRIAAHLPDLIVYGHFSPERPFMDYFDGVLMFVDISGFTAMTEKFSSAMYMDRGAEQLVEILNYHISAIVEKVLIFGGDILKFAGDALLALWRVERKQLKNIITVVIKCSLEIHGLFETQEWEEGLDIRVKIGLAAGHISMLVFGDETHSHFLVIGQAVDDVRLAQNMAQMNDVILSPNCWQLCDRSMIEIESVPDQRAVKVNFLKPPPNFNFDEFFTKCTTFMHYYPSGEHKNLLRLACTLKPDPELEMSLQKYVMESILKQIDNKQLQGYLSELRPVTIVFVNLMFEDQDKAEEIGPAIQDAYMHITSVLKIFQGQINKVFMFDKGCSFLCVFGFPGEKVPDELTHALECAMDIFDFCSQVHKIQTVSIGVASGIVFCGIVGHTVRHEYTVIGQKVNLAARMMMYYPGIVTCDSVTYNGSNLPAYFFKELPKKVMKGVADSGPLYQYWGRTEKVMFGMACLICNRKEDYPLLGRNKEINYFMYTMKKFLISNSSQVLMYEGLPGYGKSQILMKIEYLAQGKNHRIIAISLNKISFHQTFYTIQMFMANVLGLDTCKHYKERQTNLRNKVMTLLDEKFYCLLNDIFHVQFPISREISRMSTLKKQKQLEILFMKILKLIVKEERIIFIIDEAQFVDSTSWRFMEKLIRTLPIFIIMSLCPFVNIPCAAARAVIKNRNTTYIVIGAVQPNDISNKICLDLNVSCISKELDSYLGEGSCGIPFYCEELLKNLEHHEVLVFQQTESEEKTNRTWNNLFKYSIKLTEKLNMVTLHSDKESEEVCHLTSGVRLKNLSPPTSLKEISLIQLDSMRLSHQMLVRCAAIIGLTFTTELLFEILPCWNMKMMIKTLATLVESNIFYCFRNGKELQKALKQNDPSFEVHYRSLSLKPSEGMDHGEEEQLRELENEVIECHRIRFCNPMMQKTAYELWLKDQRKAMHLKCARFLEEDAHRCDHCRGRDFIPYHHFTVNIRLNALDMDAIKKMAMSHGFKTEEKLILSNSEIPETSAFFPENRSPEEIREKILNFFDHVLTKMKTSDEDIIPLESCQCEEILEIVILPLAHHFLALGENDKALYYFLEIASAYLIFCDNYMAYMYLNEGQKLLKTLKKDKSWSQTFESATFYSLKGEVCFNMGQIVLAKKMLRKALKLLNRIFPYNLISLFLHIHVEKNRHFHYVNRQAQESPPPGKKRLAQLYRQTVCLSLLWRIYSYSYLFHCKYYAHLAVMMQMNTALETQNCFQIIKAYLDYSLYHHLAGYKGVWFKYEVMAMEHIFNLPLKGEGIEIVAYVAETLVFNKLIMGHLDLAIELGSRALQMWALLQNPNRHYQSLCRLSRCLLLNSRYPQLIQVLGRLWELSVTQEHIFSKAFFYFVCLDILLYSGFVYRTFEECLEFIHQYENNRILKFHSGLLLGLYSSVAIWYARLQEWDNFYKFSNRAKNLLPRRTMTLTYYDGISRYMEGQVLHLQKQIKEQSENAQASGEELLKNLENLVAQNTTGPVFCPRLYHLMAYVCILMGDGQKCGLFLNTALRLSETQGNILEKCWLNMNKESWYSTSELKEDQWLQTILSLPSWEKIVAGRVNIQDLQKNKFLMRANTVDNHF
measure: pIC50
// pIC50: -log10(molar conc.)

Prompt: Hello, I am looking for reported pIC50 with soluble, sperm-specific adenylate cyclase (sAC) (Homo sapiens) for CC(O)CNC(=O)c1[nH]c2ccc(N(C)S(=O)(=O)c3ccc(C(C)(C)C)cc3)cc2c1-c1ccccc1 (racemic) . Could you help?
Response: 5.89
